All values here come from the supplement of paper PMC10567573.

B1: GFOD1 (parent)
chain: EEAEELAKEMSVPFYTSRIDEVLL

# Variants of: B1
# Procedure text: protein stability index of a GFP-peptide fusion (GPS, HEK-293T) (PSI 1-6); higher = more stable;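 further: lentivirally expressed fusions sorted by FACS into six bins by GFP to DsRed ratio, PSI derived from sequencing read proportions per bin multiplied by bin number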
# Test settings: c terminus: a fixed tail appended
Readout kind: protein stability index
Give the figure by itself; no unit, no explanation.

Worked cases, answers included:
Problem: Report protein stability index for "V12Q"
Result: 3.91

Problem: Report protein stability index for "P13D"
Result: 3.96

New cases:
Problem: Report protein stability index for "K8D"
Result: 3.94
